molecular target: CBL-B (Homo sapiens, UniProt Q13191); construct: GST; test: CBL-B TR-FRET IC50 screening (E1/E2 ubiquitination, Biotin-Ubiquitin, Anti GST-Tb donor / Streptavidin-d2 acceptor); format: biochemical; settings: CBL-B 10 nM final; 11-point titration from 100 uM; binned A-F; read-out: CBL-B TR-FRET activity IC50
Sequence (Q13191 whole entry): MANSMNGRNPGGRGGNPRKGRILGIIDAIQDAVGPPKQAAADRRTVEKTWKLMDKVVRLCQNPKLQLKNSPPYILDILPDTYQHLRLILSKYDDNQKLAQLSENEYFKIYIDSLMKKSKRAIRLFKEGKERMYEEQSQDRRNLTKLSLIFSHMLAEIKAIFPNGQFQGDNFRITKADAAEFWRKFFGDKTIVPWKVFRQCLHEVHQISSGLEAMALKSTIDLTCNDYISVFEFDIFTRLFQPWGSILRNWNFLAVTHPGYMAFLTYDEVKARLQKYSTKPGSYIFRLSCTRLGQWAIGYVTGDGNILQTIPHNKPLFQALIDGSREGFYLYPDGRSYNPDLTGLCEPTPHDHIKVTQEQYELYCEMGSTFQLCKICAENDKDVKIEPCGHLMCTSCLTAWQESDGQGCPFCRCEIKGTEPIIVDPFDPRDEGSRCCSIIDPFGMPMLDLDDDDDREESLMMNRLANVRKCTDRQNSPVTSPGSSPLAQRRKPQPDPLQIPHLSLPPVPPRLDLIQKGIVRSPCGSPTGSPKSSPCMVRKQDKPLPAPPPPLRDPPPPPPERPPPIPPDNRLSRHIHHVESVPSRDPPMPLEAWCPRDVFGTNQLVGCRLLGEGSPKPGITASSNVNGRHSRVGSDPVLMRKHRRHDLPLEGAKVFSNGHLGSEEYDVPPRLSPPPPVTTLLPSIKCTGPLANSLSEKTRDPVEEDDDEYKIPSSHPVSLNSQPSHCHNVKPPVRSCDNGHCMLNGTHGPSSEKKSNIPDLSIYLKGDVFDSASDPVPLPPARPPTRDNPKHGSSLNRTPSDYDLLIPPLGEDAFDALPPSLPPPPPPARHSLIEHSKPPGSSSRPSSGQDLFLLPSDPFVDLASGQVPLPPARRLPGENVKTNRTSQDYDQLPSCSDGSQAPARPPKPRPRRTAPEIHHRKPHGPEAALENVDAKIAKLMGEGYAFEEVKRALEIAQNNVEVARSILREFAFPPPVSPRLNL
Reported IC50 values are given for each entry in this list.

Value of IC50 reported for the compound Cn1cnnc1[C@]1(c2cccc(-n3cc4c(C(F)(F)F)cc(CN5CCC(F)CC5)cn4c3=O)c2)C[C@H](C)C1 (single isomer, unassigned) [Compound 237] is < 100 nM

Value of IC50 reported for the compound CO[C@H]1CCCN(Cc2cc(C(F)(F)F)c3cn(-c4cccc(C5(Cc6nncn6C)COC5)c4)c(=O)n3c2)C1 [Compound 123] is < 100 nM

Value of IC50 reported for the compound [2H]C([2H])([2H])n1cnnc1[C@@H](c1cccc(-n2cc3c(C(F)(F)F)cc(CN4CCO[C@H](C)C4)cn3c2=O)c1)C1CCC1 (single isomer, unassigned) [Compound 137] is < 100 nM

Value of IC50 reported for the compound C[C@@H]1CN(Cc2cc(C(F)(F)F)c3cn(-c4cccc([C@H](c5nncn5C)C5COC5)c4)c(=O)n3c2)CCO1 [Compound 304] is < 100 nM

----------
molecular target: CBL-B (Homo sapiens); construct: GST; test: CBL-B TR-FRET IC50 screening (E1/E2 ubiquitination, Biotin-Ubiquitin, Anti GST-Tb donor / Streptavidin-d2 acceptor); format: biochemical; details: CBL-B 10 nM final; 11-point titration from 100 uM; binned A-F; read-out: CBL-B TR-FRET activity IC50
pIC50: −log10 of the molar value.
Reported pIC50 values are given for each entry in this list.

Recorded results for 3 compounds are shown here.
| compound | target.of.assay | pIC50 |
| --- | --- | --- |
| C[C@H]1CCCN(C(=O)c2cc(C(F)(F)F)c3cn(-c4cccc([C@H](c5nncn5C)C5CCC5)c4)c(=O)n3c2)C1 | CBL-B (Homo sapiens) | > 7.00 |
| CN(Cc1cc(C(F)(F)F)c2cn(-c3cccc([C@H](c4nncn4C)C4CCC4)c3)c(=O)n2c1)CC1COC1 | CBL-B (Homo sapiens) | > 7.00 |
| Cn1cnnc1[C@@H](c1cccc(-n2cc3c(C(F)(F)F)cc(CN4CCn5ncnc5C4)cn3c2=O)c1)C1CCC1 | CBL-B (Homo sapiens) | > 7.00 |

Value of pIC50 reported for the compound Cn1cnnc1CC1(c2cccc(-n3cc4c(C(F)(F)F)cc(CN5CCCC(O)C5)cn4c3=O)c2)COC1 (centres unmarked) is 6.00 to 6.52

Value of pIC50 reported for the compound C[C@@H](c1cc(C(F)(F)F)c2cn(-c3cccc(C4([C@@H](F)c5nncn5C)COC4)c3)c(=O)n2c1)N1CCC2(CC2)C1 is > 7.00

----------
Reported IC50 values are given for each entry in this list.
target: CBL-B (Homo sapiens, UniProt Q13191); construct: GST; experiment: CBL-B TR-FRET IC50 screening (E1/E2 ubiquitination, Biotin-Ubiquitin, Anti GST-Tb donor / Streptavidin-d2 acceptor); type: biochemical; settings: CBL-B 10 nM final; 11-point titration from 100 uM; binned A-F; read-out: CBL-B TR-FRET activity IC50

| compound | IC50 |
| --- | --- |
| Cn1cnnc1CC1(c2cccc(-n3cc4c(C(F)(F)F)cc(CN5CCC(F)CC5)cn4c3=O)c2)COC1 [Compound 13] | < 0.1 µM |
| C[C@H]1CCCN(Cc2cc(C(F)(F)F)c3cn(-c4cccc([C@@H](c5nncs5)C5CCC5)c4)c(=O)n3c2)C1 (single isomer, unassigned) [Compound 203] | 0.301 to 1 µM |
| COC1CN(Cc2cc(C(F)(F)F)c3cn(-c4cccc([C@H](c5nncn5C)C5CCC5)c4)c(=O)n3c2)C1 [Compound 312] | < 0.1 µM |

Value of IC50 reported for the compound Cc1c[nH]nc1[C@@H](c1cccc(-n2cc3c(C(F)(F)F)cc(CN4CCC[C@H](C)C4)cn3c2=O)c1)C1CCC1 [Compound 219] is < 0.1 µM

Value of IC50 reported for the compound C[C@H]1CCCCN1Cc1cc(C(F)(F)F)c2cn(-c3cccc([C@@H](c4nncn4C)C4CCC4)c3)c(=O)n2c1 [Compound 362_P1] is < 0.1 µM

Value of IC50 reported for the compound C[C@H]1CCCN(Cc2cc(C(F)(F)F)c3cn(-c4cccc(N(c5nncs5)C5CCC5)c4)c(=O)n3c2)C1 [Compound 344] is > 10 µM

Value of IC50 reported for the compound C[C@@H]1CN(Cc2cc(C(F)(F)F)c3cn(-c4cccc(C5(c6nncn6C)CC6(CC6)C5)c4)c(=O)n3c2)CCO1 [Compound 116] is < 0.1 µM

Value of IC50 reported for the compound C[C@H]1CCCN(Cc2cc(C(F)(F)F)c3cn(-c4cccc([C@H](c5nccs5)C5CCC5)c4)c(=O)n3c2)C1 (single isomer, unassigned) [Compound 306] is > 10 µM

Value of IC50 reported for the compound Cn1cnnc1[C@@H](c1cccc(-n2cc3c(C(F)(F)F)cc(CN4CC(C)(C)C4)cn3c2=O)c1)C1CCC1 [Compound 337] is < 0.1 µM

Value of IC50 reported for the compound COc1cc(C(F)(F)F)c2cn(-c3cccc(C4(Cc5nncn5C)COC4)c3)c(=O)n2c1 [Compound 88] is 1 to 3 µM

Value of IC50 reported for the compound C[C@H]1CCCN(Cc2cc(C(F)(F)F)c3cn(-c4cccc([C@H](c5nncn5C)N5CCC5)c4)c(=O)n3c2)C1 (single isomer, unassigned) [Compound 367] is 3 to 10 µM

Value of IC50 reported for the compound C[C@@H](c1cc(C(F)(F)F)c2cn(-c3cccc(C4(Cc5nncn5C)COC4)c3)c(=O)n2c1)N1CC[C@H](F)C1 [Compound 39] is < 0.1 µM
